# Test description: self-splicing fitness, log relative to wild type (ln ratio); higher = more splicing; Tetrahymena group I intron in knt gene, E. coli kanamycin selection, DiMSum; sequences stand for … in CUCUCU…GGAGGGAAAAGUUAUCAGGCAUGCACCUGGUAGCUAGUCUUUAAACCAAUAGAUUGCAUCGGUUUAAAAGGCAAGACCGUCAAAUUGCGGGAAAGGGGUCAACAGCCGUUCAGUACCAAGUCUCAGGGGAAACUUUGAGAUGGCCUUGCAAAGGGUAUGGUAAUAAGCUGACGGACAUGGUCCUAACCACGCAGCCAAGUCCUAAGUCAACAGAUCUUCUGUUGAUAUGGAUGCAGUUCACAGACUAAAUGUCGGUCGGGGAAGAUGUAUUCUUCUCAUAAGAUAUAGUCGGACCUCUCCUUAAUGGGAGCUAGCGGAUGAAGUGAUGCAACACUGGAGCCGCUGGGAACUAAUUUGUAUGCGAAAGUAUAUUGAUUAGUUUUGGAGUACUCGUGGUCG;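 note: selection with 25 µg/mL kanamycin versus none on LB agar overnight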
# Test settings: 30 °C
Metric name: self-splicing fitness (ln)

>  <Sequence content>
UACUAGCAAUAUUACGAUUC

>  <Experimental value>
-2.3

$$$$
>  <Sequence content>
GCUAAGCAAUAUUACGGUAC

>  <Experimental value>
-1.47

$$$$
>  <Sequence content>
CAUCAGCAAUAUUACGAUGG

>  <Experimental value>
-0.479

$$$$
>  <Sequence content>
GAAUAGCAAUAUUACGUGCU

>  <Experimental value>
-2.04

$$$$

###

# Test description: self-splicing fitness, log relative to wild type (ln ratio); higher = more splicing; Tetrahymena group I intron in knt gene, E. coli kanamycin selection, DiMSum; sequences stand for … in CUCUCU…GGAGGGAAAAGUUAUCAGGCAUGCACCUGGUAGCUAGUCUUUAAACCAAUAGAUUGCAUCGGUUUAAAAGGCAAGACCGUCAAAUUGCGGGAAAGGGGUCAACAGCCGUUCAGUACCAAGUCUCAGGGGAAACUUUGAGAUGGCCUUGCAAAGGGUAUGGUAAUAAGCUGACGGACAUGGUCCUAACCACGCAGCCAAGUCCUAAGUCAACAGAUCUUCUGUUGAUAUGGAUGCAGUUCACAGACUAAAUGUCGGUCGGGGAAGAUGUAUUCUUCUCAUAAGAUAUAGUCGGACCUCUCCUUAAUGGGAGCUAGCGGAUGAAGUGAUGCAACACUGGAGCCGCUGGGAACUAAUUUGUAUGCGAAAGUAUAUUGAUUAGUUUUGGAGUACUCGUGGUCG
# Test settings: 30 °C
The following ranges of self-splicing fitness (ln) define the classes used here: low = under -4, intermediate = from -4 up to -3, high = -3 and over

>  <Sequence content>
GAUAAGCAAUAUUACGUCAG

>  <Label class>
low

$$$$
>  <Sequence content>
ACUCAGCAAUAUUACGCCGA

>  <Label class>
intermediate

$$$$
>  <Sequence content>
CCUAAGCAAUAUUACGCAAG

>  <Label class>
low

$$$$
>  <Sequence content>
GGGGAGCAAUAUUACGUCUG

>  <Label class>
high

$$$$
>  <Sequence content>
UCUAAGCAAUAUUACGGGAC

>  <Label class>
intermediate

$$$$
>  <Sequence content>
UAUUAGCAAUAUUACGCGCC

>  <Label class>
high

$$$$
>  <Sequence content>
CCAAAGCAAUAUUACGCUUU

>  <Label class>
intermediate

$$$$
>  <Sequence content>
ACUGAGCAAUAUUACGAUAU

>  <Label class>
low

$$$$
>  <Sequence content>
CAGUAGCAAUAUUACGGAUA

>  <Label class>
high

$$$$
>  <Sequence content>
AUACAGCAAUAUUACGGAGA

>  <Label class>
intermediate

$$$$
>  <Sequence content>
CCAUAGCAAUAUUACGUGCU

>  <Label class>
intermediate

$$$$
>  <Sequence content>
CAGUAGCAAUAUUACGGGUC

>  <Label class>
intermediate

$$$$
>  <Sequence content>
UGCAAGCAAUAUUACGGGAG

>  <Label class>
high

$$$$
>  <Sequence content>
CUUGAGCAAUAUUACGCAUG

>  <Label class>
high

$$$$
>  <Sequence content>
CACCAGCAAUAUUACGCUGA

>  <Label class>
intermediate

$$$$
>  <Sequence content>
CGCUAGCAAUAUUACGUACC

>  <Label class>
high

$$$$
>  <Sequence content>
AUAGAGCAAUAUUACGCAAA

>  <Label class>
high

$$$$
>  <Sequence content>
UUCAAGCAAUAUUACGUACU

>  <Label class>
high

$$$$
>  <Sequence content>
CUCGAGCAAUAUUACGUUUU

>  <Label class>
intermediate

$$$$
>  <Sequence content>
AUCUAGCAAUAUUACGGAGU

>  <Label class>
high

$$$$
